Biological target: wild type PKR (Homo sapiens, UniProt P30613)
Sequence (P30613 whole entry): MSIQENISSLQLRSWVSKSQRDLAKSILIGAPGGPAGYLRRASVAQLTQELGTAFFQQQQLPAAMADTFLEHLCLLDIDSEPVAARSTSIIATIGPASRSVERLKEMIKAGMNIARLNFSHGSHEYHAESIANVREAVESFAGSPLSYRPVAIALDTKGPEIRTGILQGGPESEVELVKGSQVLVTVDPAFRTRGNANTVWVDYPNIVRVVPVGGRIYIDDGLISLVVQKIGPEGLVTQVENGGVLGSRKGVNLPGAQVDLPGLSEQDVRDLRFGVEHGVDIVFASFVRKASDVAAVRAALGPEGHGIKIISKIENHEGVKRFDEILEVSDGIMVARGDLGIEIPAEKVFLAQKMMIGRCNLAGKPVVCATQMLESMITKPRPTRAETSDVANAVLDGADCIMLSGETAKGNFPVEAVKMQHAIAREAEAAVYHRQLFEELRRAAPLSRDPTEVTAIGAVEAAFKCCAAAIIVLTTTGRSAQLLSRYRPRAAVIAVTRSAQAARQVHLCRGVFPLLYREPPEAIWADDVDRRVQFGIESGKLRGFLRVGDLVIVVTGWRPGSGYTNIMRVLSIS
Experiment: PKR mutant assay (AC50), wild type PKR
Type: biochemical
Settings: wild type PKR enzyme; read-out: PKR WT AC50
readout_kind: AC50

// solved cases for AC50 follow
smiles_string: Cn1c2nc(Cc3ncsc3Cl)sc2c2cnn(Cc3c[nH]nn3)c(=O)c21
AC50: < 0.3 µM
--
smiles_string: Cn1ccc(Cn2ncc3c4sc(C(=O)c5cc[nH]n5)nc4n(C)c3c2=O)n1
AC50: > 0.8 µM
--
smiles_string: Cn1c2nc(Cc3cc[nH]n3)sc2c2cnn(Cc3cocn3)c(=O)c21
AC50: < 0.3 µM
--
smiles_string: Cn1c2nc(Cn3ccnc3)sc2c2cnn(Cc3ccnc(N)n3)c(=O)c21
AC50: > 0.8 µM
--
smiles_string: Cn1c2nc(Cc3c[nH]nn3)sc2c2cnn(Cc3cc[nH]n3)c(=O)c21
AC50: < 0.3 µM
--
smiles_string: Cn1c2nc(Cc3ccccn3)sc2c2cnn(Cc3cccc(N)n3)c(=O)c21
AC50: < 0.3 µM

Consider the following items and state reported AC50 for each.
1. Cn1c2nc(Cc3cc[nH]n3)sc2c2cnn(Cc3nc(N)ccc3F)c(=O)c21
2. Cn1c2nc(Cc3cc[nH]n3)sc2c2cnn(Cc3ccc(=O)[nH]c3)c(=O)c21
3. Cn1ccc(Cn2ncc3c4sc(Cc5cccc(N)n5)nc4n(C)c3c2=O)n1
4. Cn1c2nc(Cc3cc[nH]n3)sc2c2cnn(Cc3c[nH]cn3)c(=O)c21

Return:
["< 0.3 µM", "< 0.3 µM", "< 0.3 µM", "< 0.3 µM"]

====

Target: PKR R510Q (Homo sapiens, UniProt P30613, R510Q)
Sequence (P30613 whole entry R510Q): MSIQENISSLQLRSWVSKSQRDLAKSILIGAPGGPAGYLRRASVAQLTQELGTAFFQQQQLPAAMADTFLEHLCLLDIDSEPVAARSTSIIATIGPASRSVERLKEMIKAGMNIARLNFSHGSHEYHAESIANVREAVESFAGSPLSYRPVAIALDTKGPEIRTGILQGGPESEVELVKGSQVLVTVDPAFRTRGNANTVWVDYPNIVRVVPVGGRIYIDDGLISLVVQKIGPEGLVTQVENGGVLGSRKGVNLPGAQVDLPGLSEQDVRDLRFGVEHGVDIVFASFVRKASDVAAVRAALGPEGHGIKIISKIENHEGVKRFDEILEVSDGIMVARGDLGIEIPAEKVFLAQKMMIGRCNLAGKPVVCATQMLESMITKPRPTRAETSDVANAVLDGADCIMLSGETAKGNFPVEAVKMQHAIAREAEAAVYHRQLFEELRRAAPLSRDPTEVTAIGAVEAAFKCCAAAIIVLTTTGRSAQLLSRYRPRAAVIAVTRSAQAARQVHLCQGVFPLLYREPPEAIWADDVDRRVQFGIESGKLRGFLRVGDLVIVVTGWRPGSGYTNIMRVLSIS
Test: PKR mutant assay (AC50), PKR R510Q
Type: biochemical
Settings: PKR R510Q mutant enzyme; read-out: PK R510Q AC50
readout_kind: AC50

// solved cases for AC50 follow
smiles_string: Cc1scnc1Cc1nc2c(s1)c1cnn(Cc3c[nH]nn3)c(=O)c1n2C
system_under_test: PKR R510Q (Homo sapiens, UniProt P30613, R510Q)
result: < 300 nM

smiles_string: COc1cccc(Cn2ncc3c4sc(Cc5cc[nH]n5)nc4n(C)c3c2=O)n1
system_under_test: PKR R510Q (Homo sapiens, UniProt P30613, R510Q)
result: < 300 nM

smiles_string: Cn1c2nc(Cc3cc[nH]n3)sc2c2cnn(Cc3nc[nH]n3)c(=O)c21
system_under_test: PKR R510Q (Homo sapiens, UniProt P30613, R510Q)
result: < 300 nM

smiles_string: Cn1c2nc(Cc3n[nH]cc3F)sc2c2cnn(Cc3n[nH]cc3C#N)c(=O)c21
system_under_test: PKR R510Q (Homo sapiens, UniProt P30613, R510Q)
result: < 300 nM

smiles_string: Cn1cc(CC(N)=O)c(Cn2ncc3c4sc(Cc5cc[nH]n5)nc4n(C)c3c2=O)n1
system_under_test: PKR R510Q (Homo sapiens, UniProt P30613, R510Q)
result: > 800 nM

Consider the following items and state reported AC50 for each.
1. Cn1c2nc(Cc3cc[nH]n3)sc2c2cnn(Cc3ncsc3C(N)=O)c(=O)c21
2. Cn1c2nc(Cc3cc[nH]n3)sc2c2cnn(Cc3ccc(C(N)=O)cn3)c(=O)c21
3. Cn1cc(C(N)=O)c(Cn2ncc3c4sc(Cc5cc[nH]n5)nc4n(C)c3c2=O)n1
4. Cn1ccc(Cn2ncc3c4sc(Cc5n[nH]cc5F)nc4n(C)c3c2=O)n1
5. Cn1c2nc(Cc3nc(N)sc3F)sc2c2cnn(Cc3c[nH]nn3)c(=O)c21

Return:
1. < 300 nM
2. > 800 nM
3. > 800 nM
4. < 300 nM
5. < 300 nM

====

Biological target: PKR R510Q (Homo sapiens, UniProt P30613, R510Q)
Test: PKR mutant assay (AC50), PKR R510Q
Assay type: biochemical
Conditions: PKR R510Q mutant enzyme; read-out: PK R510Q AC50
Give AC50 for every item shown.

// solved cases for AC50 follow
smiles_string: Cn1c2nc(Cc3n[nH]cc3F)sc2c2cnn(Cc3ncsc3Cl)c(=O)c21
result: < 300 nM
--
smiles_string: Cn1c2nc(Cc3cscn3)sc2c2cnn(Cc3cccc(N)n3)c(=O)c21
result: < 300 nM
--
smiles_string: Cn1c2nc([C@@H](O)c3cc[nH]n3)sc2c2cnn(Cc3cc[nH]n3)c(=O)c21
result: < 300 nM
--
smiles_string: Cn1c2nc(Cc3cccc(N)n3)sc2c2cnn(Cc3cscn3)c(=O)c21
result: < 300 nM
--
smiles_string: Cn1c2nc(Cc3cc[nH]n3)sc2c2cnn(Cc3cccc(C#N)n3)c(=O)c21
result: < 300 nM

Consider the following items and state reported AC50 for each.
1. Cn1nncc1Cn1ncc2c3sc(Cc4cc[nH]n4)nc3n(C)c2c1=O
2. Cn1c2nc(Cc3cc[nH]n3)sc2c2cnn(Cc3ccccn3)c(=O)c21

Return:
> 800 nM
< 300 nM

Consider the following items and state reported AC50 for each.
1. Cn1c2nc(Cc3ncsc3Br)sc2c2cnn(Cc3cc[nH]n3)c(=O)c21
2. Cn1c2nc(Cc3c[nH]cn3)sc2c2cnn(Cc3ncsc3C(F)(F)F)c(=O)c21
3. Cn1c2nc(Cc3cc[nH]n3)sc2c2cnn(Cc3nc[nH]c3N)c(=O)c21

Return:
< 300 nM
> 800 nM
301 to 800 nM

====

Give AC50 for every item shown.
Target: PKR R510Q (Homo sapiens, UniProt P30613, R510Q)
Test: PKR mutant assay (AC50), PKR R510Q
Assay type: biochemical
Conditions: PKR R510Q mutant enzyme; read-out: PK R510Q AC50

// solved cases for AC50 follow
smiles_string: Cn1c2nc(Cc3cc[nH]n3)sc2c2cnn(Cc3n[nH]cc3OC(F)(F)F)c(=O)c21
result: 301 to 800 nM
//
smiles_string: Cn1ccc(Cc2nc3c(s2)c2cnn(Cc4c[nH]nn4)c(=O)c2n3C)n1
result: < 300 nM
//
smiles_string: Cc1c[nH]nc1Cn1ncc2c3sc(Cc4n[nH]cc4F)nc3n(C)c2c1=O
result: < 300 nM
//
smiles_string: Cn1cc(OC(F)(F)F)c(Cn2ncc3c4sc(Cc5cc[nH]n5)nc4n(C)c3c2=O)n1
result: < 300 nM
//
smiles_string: Cn1c2nc(Cc3cc[nH]n3)sc2c2cnn(Cc3cccnc3)c(=O)c21
result: < 300 nM
//
smiles_string: Cn1c2nc(Cc3cc[nH]n3)sc2c2cnn(Cc3ncsc3N)c(=O)c21
result: < 300 nM
//
smiles_string: Cn1c2nc(Cc3cc[nH]n3)sc2c2cnn(Cc3ccc(F)c(N)n3)c(=O)c21
result: < 300 nM
//
smiles_string: Cn1c2nc(Cc3cc[nH]n3)sc2c2cnn(Cc3ncsc3F)c(=O)c21
result: < 300 nM
//
smiles_string: Cn1cc(Cn2ncc3c4sc(Cc5cc[nH]n5)nc4n(C)c3c2=O)nn1
result: < 300 nM
//
smiles_string: Cn1c2nc(Cc3c[nH]nn3)sc2c2cnn(Cc3nccs3)c(=O)c21
result: < 300 nM

Consider the following items and state reported AC50 for each.
1. CC(=O)Nc1ccc(F)c(Cn2ncc3c4sc(Cn5ccnc5)nc4n(C)c3c2=O)c1
2. Cn1c2nc(Cc3cccc(N)n3)sc2c2cnn(Cc3cc[nH]n3)c(=O)c21
3. COc1scnc1Cc1nc2c(s1)c1cnn(Cc3cc[nH]n3)c(=O)c1n2C
4. Cn1c2nc(Cc3ncsc3Cl)sc2c2cnn(Cc3c[nH]nn3)c(=O)c21
5. Cn1cc(N)c(Cn2ncc3c4sc(Cc5cc[nH]n5)nc4n(C)c3c2=O)n1
6. Cn1c2nc(Cc3c[nH]nn3)sc2c2cnn(Cc3cccc(N)n3)c(=O)c21

Return:
> 800 nM
< 300 nM
< 300 nM
< 300 nM
< 300 nM
< 300 nM

====

Target: wild type PKR (Homo sapiens, UniProt P30613)
Test: PKR mutant assay (AC50), wild type PKR
Type: biochemical
Details: wild type PKR enzyme; read-out: PKR WT AC50
readout_kind: AC50

// solved cases for AC50 follow
compound: Cn1c2nc(Cc3n[nH]cc3F)sc2c2cnn(Cc3nc(N)ccc3F)c(=O)c21
AC50: < 300 nM
--
compound: CC(=O)Nc1ccc(F)c(Cn2ncc3c4sc(Cc5cc[nH]n5)nc4n(C)c3c2=O)n1
AC50: > 800 nM
--
compound: Cn1c2nc(Cc3cc[nH]n3)sc2c2cnn(Cc3cc(F)cc(N)n3)c(=O)c21
AC50: < 300 nM
--
compound: Cn1c2nc(Cc3cc[nH]n3)sc2c2cnn(Cc3nc[nH]c3N)c(=O)c21
AC50: 301 to 800 nM
--
compound: CC(c1cc[nH]n1)c1nc2c(s1)c1cnn(Cc3cc[nH]n3)c(=O)c1n2C (stereo not shown)
AC50: < 300 nM

Consider the following items and state reported AC50 for each.
1. Cn1c2nc(Cc3c[nH]nn3)sc2c2cnn(Cc3cscn3)c(=O)c21
2. Cn1c2nc(Cc3cc[nH]n3)sc2c2cnn(Cc3nc[nH]n3)c(=O)c21
3. Cn1c2nc(Cc3ncsc3F)sc2c2cnn(Cc3c[nH]nn3)c(=O)c21
4. Cn1c2nc(Cc3cc[nH]n3)sc2c2cnn(Cc3ncsc3F)c(=O)c21
5. Cn1cc(C(=O)O)c(Cn2ncc3c4sc(Cc5cc[nH]n5)nc4n(C)c3c2=O)n1

Return:
1. < 300 nM
2. < 300 nM
3. < 300 nM
4. < 300 nM
5. > 800 nM
